test: Tested for half -life alpha after intravenous bolus administration of 100 mg/kg in rat 2; assay type: ADME, organism-based; parameters: dose 100 mg/kg, route intravenous; settings: in vivo, read-out: T1/2 alpha
experimental endpoint: half-life (min)
Write down the numeric answer in min and omit the unit.

Q: # half-life lookup, item CCN(CC)C(=S)SC1OC(CO)C(O)C(O)C1O (stereo unspecified)
Result: 5.2

###

assay: Tested for half life gamma after intravenous bolus administration of 100 mg/kg in rat 1; format: ADME, organism-based; design: dose 100 mg/kg, route intravenous; conditions: in vivo, read-out: T1/2 gamma
experimental endpoint: half-life (h)
Write down the numeric answer in h and omit the unit.

Q: # half-life lookup, item CCN(CC)C(=S)SC1OC(CO)C(O)C(O)C1O (stereo unspecified)
Result: 1.48

###

experiment: Tested for half -life alpha after intravenous bolus administration of 100 mg/kg in rat 1; format: ADME, organism-based; parameters: dose 100 mg/kg, route intravenous; conditions: in vivo, read-out: T1/2 alpha
experimental endpoint: half-life

Q: # half-life lookup, item CCN(CC)C(=S)SC1OC(CO)C(O)C(O)C1O (stereo unspecified)
Result: 3.7 min

###

assay: Tested for the half life period in beta glucosidase at pH of 7.4; 6-12 days; type: ADME; conditions: pH 7.4
experimental endpoint: half-life (h)
Write down the numeric answer in h and omit the unit.

Q: # half-life lookup, item CCN(CC)C(=S)SC1OC(CO)C(O)C(O)C1O (stereo unspecified)
Result: 144

Cited source for all entries: ChEMBL document CHEMBL1127783
